Sourced from patent US11999964B2

target: mCherry-AID-Blast R (UniProt P93830+Q7XVM8, DEL133-229); construct: expressed in transfected cells; 'Receiver' line; test: Auxin regulation of mCherry-AID-BlastR fluorescence in Receiver cells; type: cell-based, Hamster; details: Receiver CHO-K1 cells, two days of treatment, Michaelis-Menten fit; read-out: EC50, reduction of mCherry fluorescence
Sequence (P93830 65-132 limits assumed, stated change not applied): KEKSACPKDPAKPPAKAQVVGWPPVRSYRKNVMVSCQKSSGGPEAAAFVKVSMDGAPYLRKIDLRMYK
Sequence (Q7XVM8 whole entry, stated change not applied): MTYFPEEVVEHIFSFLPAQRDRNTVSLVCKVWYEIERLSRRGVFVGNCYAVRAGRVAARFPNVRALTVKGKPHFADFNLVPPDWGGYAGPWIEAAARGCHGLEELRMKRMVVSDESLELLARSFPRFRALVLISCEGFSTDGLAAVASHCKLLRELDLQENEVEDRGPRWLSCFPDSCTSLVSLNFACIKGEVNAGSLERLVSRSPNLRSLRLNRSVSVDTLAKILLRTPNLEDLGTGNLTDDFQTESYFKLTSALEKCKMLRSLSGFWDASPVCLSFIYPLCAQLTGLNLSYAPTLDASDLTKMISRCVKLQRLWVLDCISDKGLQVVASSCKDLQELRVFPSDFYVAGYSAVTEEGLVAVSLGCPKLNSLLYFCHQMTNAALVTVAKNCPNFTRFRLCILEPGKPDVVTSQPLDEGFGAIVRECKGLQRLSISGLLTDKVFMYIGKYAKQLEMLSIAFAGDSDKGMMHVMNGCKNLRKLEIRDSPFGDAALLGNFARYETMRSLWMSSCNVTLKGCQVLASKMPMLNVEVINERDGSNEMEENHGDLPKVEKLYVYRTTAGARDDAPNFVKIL
Sequence (Q9WTX5 whole entry partner): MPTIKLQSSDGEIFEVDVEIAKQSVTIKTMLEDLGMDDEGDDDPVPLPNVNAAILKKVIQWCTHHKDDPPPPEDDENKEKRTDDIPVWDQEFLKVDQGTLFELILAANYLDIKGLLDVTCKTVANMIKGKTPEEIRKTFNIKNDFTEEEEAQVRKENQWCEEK
Readout Name: EC50 (nM)
Please give a number only; it is taken to be in nM.

{"Compound String": "O=C(O)Cc1c[nH]c2ccccc12", "Target Under Test": "mCherry-AID-Blast R (UniProt P93830+Q7XVM8, DEL133-229)", "EC50 [nM]": 110}

Okay, now this molecule:
Qu. // query EC50 value for entry `O=C(O)Cc1cccc2ccccc12`
Ans. 760
